Reported %Rmax values are given for each entry in this list.
Tested on: hTeloCBiotin (DNA, i motif) TAACCCTAACCCTAACCCTAACCC
method: SPR, single concentration
condition_description: Na+ (100 mM NaCl, 10 mM sodium cacodylate); pH 5.5, 0.05% Tween-20, 5% DMSO; 50 μM compound
// return numeric value only (unit: %, not printed)

Worked examples, 5 compounds total:
{"chemical_smiles": "CCN(CC)CCOc1ccc2c(c1)C(=O)c1cc(OCCN(CC)CC)ccc1-2", "assayed_system": "hTeloCBiotin (DNA, i motif) TAACCCTAACCCTAACCCTAACCC", "%Rmax (%)": 116}
{"chemical_smiles": "O=C1c2c(O)ccc(O)c2C(=O)c2c(NCCNCCO)ccc(NCCNCCO)c21", "assayed_system": "hTeloCBiotin (DNA, i motif) TAACCCTAACCCTAACCCTAACCC", "%Rmax (%)": 2125}
{"chemical_smiles": "Nc1ccc(N=Nc2ccccc2)c(N)n1", "assayed_system": "hTeloCBiotin (DNA, i motif) TAACCCTAACCCTAACCCTAACCC", "%Rmax (%)": 38}
{"chemical_smiles": "CN(C)c1ccc(O)c2c1C[C@H]1C[C@H]3[C@H](N(C)C)C(O)=C(C(N)=O)C(=O)[C@@]3(O)C(O)=C1C2=O", "assayed_system": "hTeloCBiotin (DNA, i motif) TAACCCTAACCCTAACCCTAACCC", "%Rmax (%)": 29}
{"chemical_smiles": "CCN(CC)Cc1cc(Nc2ccnc3cc(Cl)ccc23)ccc1O", "assayed_system": "hTeloCBiotin (DNA, i motif) TAACCCTAACCCTAACCCTAACCC", "%Rmax (%)": 15}

Field: next compound
Task: State its %Rmax on hTeloCBiotin (DNA, i motif) TAACCCTAACCCTAACCCTAACCC: NC[C@H]1O[C@H](O[C@H]2[C@H](O)[C@@H](O[C@H]3O[C@H](CO)[C@@H](O)[C@H](N)[C@H]3O)[C@H](N)C[C@@H]2N)[C@H](N)C[C@@H]1O
Output: 325

* * *

Reported %Rmax values are given for each entry in this list.
System: DSbiotin (DNA, duplex) GGCATAGTGCGTGGGCGTTAGC/GCTAACGCCCACGCACTATGCC
method: SPR, single concentration
condition_description: Na+ (100 mM NaCl, 10 mM sodium cacodylate); pH 5.5, 0.05% Tween-20, 5% DMSO; 50 μM compound
// return numeric value only (unit: %, not printed)

Worked examples, 4 molecules total:
{"chemical_smiles": "CCN(CC)CCOc1ccc2c(c1)C(=O)c1cc(OCCN(CC)CC)ccc1-2", "%Rmax, %": 811}
{"chemical_smiles": "CCN(CC)Cc1cc(Nc2ccnc3cc(Cl)ccc23)ccc1O", "%Rmax, %": 59}
{"chemical_smiles": "CC1=NCCc2c1[nH]c1cc(O)ccc21", "%Rmax, %": 123}
{"chemical_smiles": "O=C1c2ccc(O)c(O)c2C(=O)c2c(O)ccc(O)c21", "%Rmax, %": 95}

Field: next molecule
Task: State its %Rmax on DSbiotin (DNA, duplex) GGCATAGTGCGTGGGCGTTAGC/GCTAACGCCCACGCACTATGCC: NC[C@H]1O[C@H](O[C@H]2[C@H](O)[C@@H](O[C@H]3O[C@H](CO)[C@@H](O)[C@H](N)[C@H]3O)[C@H](N)C[C@@H]2N)[C@H](N)C[C@@H]1O
Output: 233

* * *

System: DSbiotin (DNA, duplex) GGCATAGTGCGTGGGCGTTAGC/GCTAACGCCCACGCACTATGCC
method: SPR, single concentration
condition_description: Na+ (100 mM NaCl, 10 mM sodium cacodylate); pH 5.5, 0.05% Tween-20, 5% DMSO; 50 μM compound
Reported %Rmax values are given for each entry in this list.
// return numeric value only (unit: %, not printed)

{"chemical_smiles": "Nc1ccc(N=Nc2ccccc2)c(N)n1", "%Rmax (%)": 137}

Task: Any idea what its %Rmax is? The compound is O=C1c2c(O)ccc(O)c2C(=O)c2c(NCCNCCO)ccc(NCCNCCO)c21
Output: 4894

Task: Also check CN(C)c1ccc(O)c2c1C[C@H]1C[C@H]3[C@H](N(C)C)C(O)=C(C(N)=O)C(=O)[C@@]3(O)C(O)=C1C2=O
Output: 69

* * *

Tested on: c-MycCBiotin (DNA, i motif) CCTTCCCCACCCTCCCCACCCTCCCCA
method: SPR, single concentration
condition_description: Na+ (100 mM NaCl, 10 mM sodium cacodylate); pH 5.5, 0.05% Tween-20, 5% DMSO; 50 μM compound
Reported %Rmax values are given for each entry in this list.

Task: Any idea what its %Rmax is? The compound is O=C1c2c(O)ccc(O)c2C(=O)c2c(NCCNCCO)ccc(NCCNCCO)c21
Output: 2534%

Task: Also check CCN(CC)CCOc1ccc2c(c1)C(=O)c1cc(OCCN(CC)CC)ccc1-2
Output: 420%

Task: Also check CC1=NCCc2c1[nH]c1cc(O)ccc21
Output: 64%

* * *

System: c-MycCBiotin (DNA, i motif) CCTTCCCCACCCTCCCCACCCTCCCCA
method: SPR, single concentration
condition_description: Na+ (100 mM NaCl, 10 mM sodium cacodylate); pH 5.5, 0.05% Tween-20, 5% DMSO; 50 μM compound
reported_endpoint: %Rmax (%)
// return numeric value only (unit: %, not printed)

Worked examples, 4 compounds total:
{"chemical_smiles": "O=C1c2ccc(O)c(O)c2C(=O)c2c(O)ccc(O)c21", "assayed_system": "c-MycCBiotin (DNA, i motif) CCTTCCCCACCCTCCCCACCCTCCCCA", "%Rmax / %": 49}
{"chemical_smiles": "CCN(CC)Cc1cc(Nc2ccnc3cc(Cl)ccc23)ccc1O", "assayed_system": "c-MycCBiotin (DNA, i motif) CCTTCCCCACCCTCCCCACCCTCCCCA", "%Rmax / %": 31}
{"chemical_smiles": "NC[C@H]1O[C@H](O[C@H]2[C@H](O)[C@@H](O[C@H]3O[C@H](CO)[C@@H](O)[C@H](N)[C@H]3O)[C@H](N)C[C@@H]2N)[C@H](N)C[C@@H]1O", "assayed_system": "c-MycCBiotin (DNA, i motif) CCTTCCCCACCCTCCCCACCCTCCCCA", "%Rmax / %": 121}
{"chemical_smiles": "Nc1ccc(N=Nc2ccccc2)c(N)n1", "assayed_system": "c-MycCBiotin (DNA, i motif) CCTTCCCCACCCTCCCCACCCTCCCCA", "%Rmax / %": 71}

Field: next compound
Task: Any idea what its %Rmax is? The compound is CN(C)c1ccc(O)c2c1C[C@H]1C[C@H]3[C@H](N(C)C)C(O)=C(C(N)=O)C(=O)[C@@]3(O)C(O)=C1C2=O
Output: 36

Data origin: paper PMC5708337
